result type: melting point

Please fill in: melting point reported for CN1CCN(c2cc3c(cc2F)c(=O)c(C(=O)O)cn3C2CC2)CC1c1ccsc1 (centres undefined) = 230 °C

====

result type: melting point

Observe how each entry below is paired with its result.
1. COc1c(F)cc(-c2cncc(OC3SCC(O)C(O)C3O)c2)cc1F (stereo unspecified) = 203 °C
2. CC(C)Oc1c(C(=O)Nc2nnn[nH]2)sc2c1CS(=O)(=O)CC2 = 230 to 232 °C
3. CSc1coc2cc(NS(C)(=O)=O)c(Oc3ccccc3)cc2c1=O = 175 to 176 °C

Sure, the documented melting point for CS(=O)(=O)c1ccc(C(CC2CCOCC2)c2ccc(-c3ccccn3)[nH]2)cn1 (stereo unspecified) is 89 to 90 °C

# melting point of COC(=O)c1ccc(OC(=O)c2ccccc2)cc1O = 103 °C

molecule COc1cc2c(cc1-c1cccnc1)-c1c(-c3cccs3)c3c(n1CC2)C(=O)N(C(C)C)CCN(C(=O)OC(C)(C)C)C3 , melting point observed: 207 to 208 °C

Item: CCOC(=O)c1cc(NC(=O)C(N)Cc2ccccc2)c[nH]1 (stereo unspecified) | melting point: 139 to 142 °C

The value of melting point measured for the molecule Cc1ccc(S(=O)(=O)OCC2(C)Cc3cc(Cl)cc(OS(=O)(=O)C(F)(F)F)c3O2)cc1 (stereo unspecified) turned out to be 100 to 102 °C
